# Tested on: Rattus norvegicus
# procedure_details: Biodistribution in naive Wistar rat whole brain at 1 to 3 MBq, iv using [18F] labeled compound measured 2 mins post dose
# Assay type: ADME, organism-based
# assay_setup: in vivo
In this section we review reported Drug uptake values for a set of compounds.

{"compound": "O=C(CF)N(Cc1cccc2c1OCC2)c1ccccc1Oc1ccccc1", "system": "Rattus norvegicus", "Drug uptake [% ID/g]": 0.81}
{"compound": "COc1ccc(OC)c(CN(C(=O)CF)c2ccccc2OC2CCCC2)c1", "system": "Rattus norvegicus", "Drug uptake [% ID/g]": 0.53}
{"compound": "CCC(C)N([11CH3])C(=O)c1cc2ccccc2c(-c2ccccc2Cl)n1 (stereo unspecified)", "system": "Rattus norvegicus", "Drug uptake [% ID/g]": 0.28}
{"compound": "O=C(CF)N(Cc1cccc2c1OCCO2)c1ccccc1Oc1ccccc1", "system": "Rattus norvegicus", "Drug uptake [% ID/g]": 0.72}
{"compound": "COc1ccccc1CN(C(=O)CF)c1ccccc1OC1CCCC1", "system": "Rattus norvegicus", "Drug uptake [% ID/g]": 0.77}
{"compound": "COc1ncccc1CN(C(=O)CF)c1cc(F)ccc1Oc1ccccc1", "system": "Rattus norvegicus", "Drug uptake [% ID/g]": 0.84}
{"compound": "COc1ccc(OC)c(CN(C(=O)C[18F])c2ccccc2Oc2ccccc2)c1", "system": "Rattus norvegicus", "Drug uptake [% ID/g]": 0.74}
{"compound": "COc1ccc(OC)c(CN(C(=O)CF)c2cc(F)ccc2Oc2ccccc2)c1", "system": "Rattus norvegicus", "Drug uptake [% ID/g]": 0.73}
{"compound": "COc1ccccc1CN(C(=O)CF)c1cccnc1Oc1ccccc1", "system": "Rattus norvegicus", "Drug uptake [% ID/g]": 0.55}
{"compound": "CC1(C)Cc2cccc(CN(C(=O)CF)c3ccccc3Oc3ccccc3)c2O1", "system": "Rattus norvegicus", "Drug uptake [% ID/g]": 0.58}
{"compound": "COc1ccc(OC)c(CN(C(=O)CF)c2cccc3cc(C)oc23)c1", "system": "Rattus norvegicus", "Drug uptake [% ID/g]": 0.68}
{"compound": "COc1ncccc1CN(C(=O)CF)c1ccccc1Oc1ccccc1", "system": "Rattus norvegicus", "Drug uptake [% ID/g]": 0.66}
{"compound": "COc1ccc(OCCF)c(CN(C(C)=O)c2cccnc2Oc2ccccc2)c1", "system": "Rattus norvegicus", "Drug uptake [% ID/g]": 0.25}
{"compound": "CC(=O)N(Cc1ccccc1OCCF)c1cccnc1Oc1ccccc1", "system": "Rattus norvegicus", "Drug uptake [% ID/g]": 0.45}
{"compound": "O=C(CF)N(Cc1cccc2c1OCO2)c1ccccc1Oc1ccccc1", "system": "Rattus norvegicus", "Drug uptake [% ID/g]": 0.65}
{"compound": "COc1ccc(OC)c(CN(C(=O)CF)c2ccccc2Sc2ccccc2)c1", "system": "Rattus norvegicus", "Drug uptake [% ID/g]": 0.61}

----------
# Tested on: Rattus norvegicus
# procedure_details: Biodistribution in naive Wistar rat olfactory bulbs at 1 to 3 MBq, iv using [18F] labeled compound measured 30 mins post dose
# Type: ADME, organism-based, Olfactory bulb
# assay_setup: in vivo, 0.5 h
In this section we review reported Drug uptake values for a set of compounds.
measured_parameter: Drug uptake (% ID/g)

{"sample_smiles": "O=C(CF)N(Cc1cccc2c1OCCO2)c1ccccc1Oc1ccccc1", "system": "Rattus norvegicus", "measured_parameter": "Drug uptake", "numeric_value": 0.4}
{"sample_smiles": "O=C(CF)N(Cc1cccc2c1OCO2)c1ccccc1Oc1ccccc1", "system": "Rattus norvegicus", "measured_parameter": "Drug uptake", "numeric_value": 0.37}
{"sample_smiles": "COc1ccc(OC)c(CN(C(=O)CF)c2cccc3cc(C)oc23)c1", "system": "Rattus norvegicus", "measured_parameter": "Drug uptake", "numeric_value": 0.35}

----------
List of log10(Ki) tested on UniProt P16257.
Sequence (P16257 whole entry, looked up): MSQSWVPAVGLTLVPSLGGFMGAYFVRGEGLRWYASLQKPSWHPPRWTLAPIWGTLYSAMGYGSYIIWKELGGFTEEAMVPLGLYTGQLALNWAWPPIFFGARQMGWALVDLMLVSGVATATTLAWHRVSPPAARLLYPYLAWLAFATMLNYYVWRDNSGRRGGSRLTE
measured_parameter: log10(Ki) (log10 of the value in nM)

{"sample_smiles": "CC1(C)Cc2cccc(CN(C(=O)CF)c3ccccc3Oc3ccccc3)c2O1", "measured_parameter": "log10(Ki)", "numeric_value": 0.42}
{"sample_smiles": "O=C(CF)N(Cc1cccs1)c1ccccc1Oc1ccccc1", "measured_parameter": "log10(Ki)", "numeric_value": 2.21}
{"sample_smiles": "Cc1ccc(CN(C(=O)CF)c2ccccc2Oc2ccccc2)o1", "measured_parameter": "log10(Ki)", "numeric_value": 1.86}
{"sample_smiles": "CC(=O)N(Cc1cccn(CCF)c1=O)c1ccccc1Oc1ccccc1", "measured_parameter": "log10(Ki)", "numeric_value": 2.02}
{"sample_smiles": "COc1ccc(OC)c(CN(C(=O)CF)c2ccccc2S(=O)(=O)c2ccccc2)c1", "measured_parameter": "log10(Ki)", "numeric_value": 3.54}
{"sample_smiles": "COc1ccc(OC)c(CN(C(=O)CF)c2cccc3cc(C)oc23)c1", "measured_parameter": "log10(Ki)", "numeric_value": 0.80}
{"sample_smiles": "COc1ncccc1CN(C(=O)CF)c1cc(F)ccc1Oc1ccccc1", "measured_parameter": "log10(Ki)", "numeric_value": 0.55}
{"sample_smiles": "COc1ccccc1CN(C(=O)CF)c1cccnc1Oc1ccccc1", "measured_parameter": "log10(Ki)", "numeric_value": 2.10}
{"sample_smiles": "COc1ccccc1CN(C(=O)CF)c1ccccc1OC1CCCC1", "measured_parameter": "log10(Ki)", "numeric_value": 0.82}
{"sample_smiles": "COc1ccc(OC)c(CN(C(=O)CF)c2cc(F)ccc2OC(C)C)c1", "measured_parameter": "log10(Ki)", "numeric_value": 0.99}
{"sample_smiles": "COc1ccc(OC)c(CN(C(=O)CF)c2cc(F)ccc2Oc2ccccc2)c1", "measured_parameter": "log10(Ki)", "numeric_value": -1.30}
{"sample_smiles": "COc1ccc(OC)c(CN(C(=O)CF)c2ccccc2OC(C)C)c1", "measured_parameter": "log10(Ki)", "numeric_value": 0.58}
{"sample_smiles": "O=C(CF)N(Cc1cccc2c1OCO2)c1ccccc1Oc1ccccc1", "measured_parameter": "log10(Ki)", "numeric_value": 0.31}
{"sample_smiles": "O=C(CF)N(Cc1cccc2c1OCC2)c1ccccc1Oc1ccccc1", "measured_parameter": "log10(Ki)", "numeric_value": -0.51}
{"sample_smiles": "COc1ccc(OC)c(CN(C(=O)CF)c2cncnc2Oc2ccccc2)c1", "measured_parameter": "log10(Ki)", "numeric_value": 1.80}

----------
# procedure_details: Lipophilicity, log D of the compound at pH 7.4
# Assay type: physicochemical
# assay_setup: buffer, read-out: logD

{"compound": "COc1ccc(OCCF)c(CN(C(C)=O)c2cccnc2Oc2ccccc2)c1", "logD": 1.58}
{"compound": "CCC(C)N(C)C(=O)c1cc2ccccc2c(-c2ccccc2Cl)n1 (configuration not stated)", "logD": 3.73}
{"compound": "O=C(CF)N(Cc1cccc2c1OCO2)c1ccccc1Oc1ccccc1", "logD": 2.8}
{"compound": "O=C(CF)N(Cc1cccc2c1OCCO2)c1ccccc1Oc1ccccc1", "logD": 1.96}
{"compound": "COc1ccc(OC)c(CN(C(=O)CF)c2cc(F)ccc2Oc2ccccc2)c1", "logD": 2.06}
{"compound": "O=C(CF)N(Cc1cccs1)c1ccccc1Oc1ccccc1", "logD": 1.98}
{"compound": "COc1ccccc1CN(C(=O)CF)c1cccnc1Oc1ccccc1", "logD": 1.51}

----------
# System: Brain
# procedure_details: Stability in naive Wistar rat brain assessed as parent compound level at 1 to 3 MBq, iv using [18F] labeled compound measured 60 mins post dose
# Assay type: ADME, organism-based
# assay_setup: in vivo, 1 h
Binary call on Stability with cut-off 80%: strictly below means YES, and equality or higher means NO.

{"sample_smiles": "COc1ccc(OC)c(CN(C(=O)C[18F])c2ccccc2Oc2ccccc2)c1", "class_assignment": "NO"}
{"sample_smiles": "COc1ccc(OC)c(CN(C(=O)CF)c2ccccc2OC2CCCC2)c1", "class_assignment": "YES"}
{"sample_smiles": "COc1ccccc1CN(C(=O)CF)c1ccccc1OC1CCCC1", "class_assignment": "YES"}
{"sample_smiles": "O=C(CF)N(Cc1cccc2c1OCO2)c1ccccc1Oc1ccccc1", "class_assignment": "NO"}
{"sample_smiles": "COc1ncccc1CN(C(=O)CF)c1cc(F)ccc1Oc1ccccc1", "class_assignment": "YES"}
{"sample_smiles": "COc1ccccc1CN(C(=O)CF)c1cnccc1Oc1ccccc1", "class_assignment": "YES"}
{"sample_smiles": "O=C(CF)N(Cc1cccc2c1OCC2)c1ccccc1Oc1ccccc1", "class_assignment": "NO"}

----------
In this section we review reported logP values for a set of molecules.
# procedure_details: Lipophilicity, log P of the compound by HPLC method
# Assay type: physicochemical
measured_parameter: logP

{"sample_smiles": "COc1ccccc1CN(C(=O)CF)c1cnccc1Oc1ccccc1", "numeric_value": 2.72}
{"sample_smiles": "COc1ccc(OC)c(CN(C(=O)CF)c2cncnc2Oc2ccccc2)c1", "numeric_value": 2.79}

The measurements presented in this section are drawn from ChEMBL document CHEMBL2069301.
